# credit: patent US20040002442A1

- system-under-test: T1, GLP-1 receptor present in the plasma membranes isolated from RINm5F cells (UniProt P32301 22-463, limits assumed)
- T1 sequence (looked up): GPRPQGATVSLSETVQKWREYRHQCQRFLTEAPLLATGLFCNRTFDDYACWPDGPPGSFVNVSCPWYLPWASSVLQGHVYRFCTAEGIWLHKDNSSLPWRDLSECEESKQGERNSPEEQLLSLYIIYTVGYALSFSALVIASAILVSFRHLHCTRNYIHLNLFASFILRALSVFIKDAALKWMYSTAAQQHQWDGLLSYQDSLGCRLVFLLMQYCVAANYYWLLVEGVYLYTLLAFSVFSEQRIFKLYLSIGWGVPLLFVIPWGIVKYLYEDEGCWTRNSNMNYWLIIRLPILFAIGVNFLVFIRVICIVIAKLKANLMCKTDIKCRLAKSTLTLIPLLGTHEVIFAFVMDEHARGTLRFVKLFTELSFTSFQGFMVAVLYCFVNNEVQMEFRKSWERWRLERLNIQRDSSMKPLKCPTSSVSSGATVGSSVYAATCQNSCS
- run-description: cell-based or functional assay
Ends that are not written are not given here. * marks the point of attachment. Palmitoyl = CCCCCCCCCCCCCCCC(=O)*
Task for the reader: assign each of the following binders its reported Relative Potency (%), cAMP SPA in RINm5F cells.
One number for each entry, in %.

Consider the following items and state reported Relative Potency (%), cAMP SPA in RINm5F cells for each.
1. HSQGTFTSDYAKYLDAAKAKEFIAWLVKGRG [G60]
2. HSQGTFTSDYAKYLDARRAKEFIAWLVKGRK(Palmitoyl) [G88]
3. HSQGTFTSDYAKYLDARRAKEFIAWLVKGRC(PEG22kD) [G277]

1: 22.3; 2: 2.3; 3: 1.8
